Sourced from patent US20250312269A1

Test: Non-compartmental analysis of DMT IM bioavailability from digitised published data
Format: in vivo
Conditions: human, blood, intramuscular, 0.7 mg/kg, 0.7 mg/kg IM; AUC of IV infusion dose 0.4 mg/kg
Metric name: bioavailability
Remember to quote the unit after the number.

## Input Could you share which bioavailability value was measured for CN(C)CCc1c[nH]c2ccccc12 [DMT, N,N-dimethyltryptamine] ?
## Output 162%

----------
Experiment: Non-compartmental analysis of DMT IM bioavailability from digitised published data
Type: in vivo
Details: human, blood, intramuscular, 0.7 mg/kg, 0.7 mg/kg IM; AUC of IV infusion dose 0.1 mg/kg
Metric name: bioavailability
The reply should consist of the numeric value with the unit placed after it.

## Input What does the record list as bioavailability for `CN(C)CCc1c[nH]c2ccccc12` ?
## Output 77.8%
